B1: TPR 5TU (parent)
chain: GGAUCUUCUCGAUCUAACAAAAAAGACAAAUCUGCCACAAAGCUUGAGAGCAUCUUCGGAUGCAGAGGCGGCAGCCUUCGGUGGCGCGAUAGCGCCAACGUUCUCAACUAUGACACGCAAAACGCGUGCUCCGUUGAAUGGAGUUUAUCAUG

# Variants of: B1
# Assay remarks: polymerase ribozyme fitness, log enrichment relative to wild type (log ratio); higher = more active; in vitro selection for triplet polymerase activity
Fewer inactive variants are shown than the library holds.
Parameter: polymerase ribozyme fitness (log ratio)

Examples with their reported polymerase ribozyme fitness (log ratio) follow.
A49C A64U G67U G68A G71A : ≤ -4.2
G11A G48A A52C G83A C87U A119C G124C : ≤ -4.2
C18G C35A G46C G58C C95G A113U : ≤ -4.2
A73C A142C : ≤ -4.2
U15A G59A A60U C79U C87A : ≤ -4.2

Find the recorded polymerase ribozyme fitness (log ratio) belonging to C54U A73G G83U C95G G100U U135A and report it.
≤ -4.2

Repeat for the following variant: A20G A41U C51A U56A C76U G86U G88U A91U C123A U144A C149A
≤ -4.2

Lookup U13C G50U G86C A89U C96A C116A
≤ -4.2

// same read-out, input: A16U A19U C32G A60U A91U C99U A138C
≤ -4.2

What do we get for C38U G81A C87G C95U C96A A97G A138C G141U ?
≤ -4.2

Likewise for A16C A52G U55A G94U A107G ?
≤ -4.2
